- assay-target: human albumin (HSA) (Homo sapiens (Human))
- assay-procedure: HSA binding analysis using a chiral HSA column
- Type: in vitro ADME
- test-context: chiral HSA column
readout-name: Conclusion (HSA binding class)

                               smiles_input                              assay_target  observed
0  O=C1CCc2cc(/C=C/C(=O)N3CC(c4cc5ccccc5o4)C3)cnc2N1  human albumin (HSA) (Homo sapiens (Human))  Moderate
1  Cc1c(C2CN(C(=O)/C=C/c3cnc4c(c3)CCC(=O)N4)C2)oc2ccccc12  human albumin (HSA) (Homo sapiens (Human))  Moderate
2  CN1CCC2(CC1)Cc1cc(/C=C/C(=O)N3CC(c4cc5ccccc5o4)C3)cnc1NC2=O  human albumin (HSA) (Homo sapiens (Human))  Moderate

###

- assay-target: human albumin (HSA) (Homo sapiens (Human), UniProt P02768)
- Sequence (P02768 25-609): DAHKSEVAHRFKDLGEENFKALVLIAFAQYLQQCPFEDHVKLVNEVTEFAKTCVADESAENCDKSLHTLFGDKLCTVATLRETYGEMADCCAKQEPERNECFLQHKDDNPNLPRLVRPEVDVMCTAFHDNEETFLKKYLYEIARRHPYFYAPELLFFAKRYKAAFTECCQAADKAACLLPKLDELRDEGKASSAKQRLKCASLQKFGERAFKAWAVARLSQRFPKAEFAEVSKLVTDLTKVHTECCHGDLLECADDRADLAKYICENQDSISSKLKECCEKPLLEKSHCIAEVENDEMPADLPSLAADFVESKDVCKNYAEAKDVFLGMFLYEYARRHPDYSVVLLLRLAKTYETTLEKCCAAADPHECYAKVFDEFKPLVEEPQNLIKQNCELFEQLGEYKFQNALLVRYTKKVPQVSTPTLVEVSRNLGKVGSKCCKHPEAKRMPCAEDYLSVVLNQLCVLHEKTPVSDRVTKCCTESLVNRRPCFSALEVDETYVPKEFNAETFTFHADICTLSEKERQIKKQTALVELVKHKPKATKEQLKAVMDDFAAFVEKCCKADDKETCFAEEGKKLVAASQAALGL
- assay-procedure: HSA binding analysis using a chiral HSA column
- Format: in vitro ADME
- test-context: retention time on chiral HSA column, pH 7.0, 37° C.
- Source text: The test system used in this analysis was an HSA chiral column. The relationship between the retention time (Tr) and percentage of albumin binding (AB %) depended on the dead time (TO) and the capacity factor (k′): AB%=[k′/(k′+1)]*100 HSA binding was classified as follows: 75%≦AB<90%: Moderate binding
readout-name: Tr (min)
Your answer is read as min, so omit the unit and give the number.

Q) Fill in the blank: the reported Tr of "Cc1c(C2CN(C(=O)/C=C/c3cnc4c(c3)CCC(=O)N4)C2)oc2ccccc12" is ____.
A) 7.229

Q) Next up: "O=C1CCc2cc(/C=C/C(=O)N3CC(c4cc5ccccc5o4)C3)cnc2N1"
A) 4.378

Q) What do you have for "CN1CCC2(CC1)Cc1cc(/C=C/C(=O)N3CC(c4cc5ccccc5o4)C3)cnc1NC2=O" ?
A) 6.734

Q) Now try "O=C1CCc2cc(/C=C/C(=O)N3CC(OCCc4cccs4)C3)cnc2N1" .
A) 1.743

###

- assay-target: human albumin (HSA) (Homo sapiens (Human), UniProt P02768)
- assay-procedure: HSA binding analysis using a chiral HSA column
- Type: in vitro ADME
- test-context: retention time on chiral HSA column, pH 7.0, 37° C.
Give Tr for every item shown.
Reply numerically in min, unit not repeated.

Q) Suppose we examine the compound "CCCCOC1CN(C(=O)/C=C/c2cnc3c(c2)CC2(CCN(C)CC2)C(=O)N3)C1" ; what Tr value has been reported?
A) 1.760

Q) Quick one: "Cc1c(C2CN(C(=O)/C=C/c3cnc4c(c3)CC3(CCN(C)CC3)C(=O)N4)C2)oc2ccccc12"
A) 9.414

Q) Follow-up item: "CCCO/N=C(/C)C1CN(C(=O)/C=C/c2cnc3c(c2)CCC(=O)N3)C1"
A) 1.084

Q) Now try "CCCO/N=C(\C)C1CN(C(=O)/C=C/c2cnc3c(c2)CCC(=O)N3)C1" .
A) 1.219

Q) Same question for "O=C1CCc2cc(/C=C/C(=O)N3CC(OCc4cccs4)C3)cnc2N1" please.
A) 1.410

###

- Tested on: E. faecalis (ATCC 29212)
- assay-procedure: MIC determination using susceptibility method (broth microdilution)
- Format: cell-based
- test-context: Enterococcus faecalis, ATCC29212, read-out: MIC (μg/ml) E. faecalis (ATCC 29212)
- Description: Minimum inhibitory concentrations (MICs) were determined by broth microdilution according to CLSI guidelines (CLSI, M100-20^1, M7-A8^2, M27-A3^3). The compounds were tested in the range from […]. Colonies were taken directly from a second-pass culture plate and prepared to a suspension equivalent to the 0.5 McFarland standard using normal saline. […] The panels were incubated at 35° C. for 16 to 20 hours before reading the MIC endpoints. […]
readout-name: MIC

Q) For E. faecalis (ATCC 29212), provide MIC of "Cc1c(C2CN(C(=O)/C=C/c3cnc4c(c3)CCC(=O)N4)C2)oc2ccccc12" please.
A) > 128 µg/mL

Q) Note, next up: "O=C1CCc2cc(/C=C/C(=O)N3CC(OCc4cccs4)C3)cnc2N1"
A) > 128 µg/mL

Q) Please answer likewise for "Cc1c(C2CN(C(=O)/C=C/c3cnc4c(c3)CC3(CCN(C)CC3)C(=O)N4)C2)oc2ccccc12"
A) > 128 µg/mL

Q) Likewise for "CN1CCC2(CC1)Cc1cc(/C=C/C(=O)N3CC(c4cc5ccccc5o4)C3)cnc1NC2=O" ?
A) > 128 µg/mL

Q) // same read-out, input: "CN1CCC2(CC1)Cc1cc(/C=C/C(=O)N3CC(OCCc4cccs4)C3)cnc1NC2=O"
A) 64 µg/mL

Q) Then this compound: "O=C1CCc2cc(/C=C/C(=O)N3CC(OCCc4cccs4)C3)cnc2N1"
A) > 128 µg/mL

Q) Follow-up entry: "O=C1CCc2cc(/C=C/C(=O)N3CC(c4cc5ccccc5o4)C3)cnc2N1"
A) 64 µg/mL

Q) Try the compound "CCCCOC1CN(C(=O)/C=C/c2cnc3c(c2)CC2(CCN(C)CC2)C(=O)N3)C1"
A) 64 µg/mL

###

- assay-target: human albumin (HSA) (Homo sapiens (Human))
- assay-procedure: HSA binding analysis using a chiral HSA column
- Assay type: in vitro ADME
- test-context: capacity factor, k′=(Tr−T0)/T0
readout-name: k′
Write the value as a bare number.

Q) Any idea what its k′ is? The compound is "CN1CCC2(CC1)Cc1cc(/C=C/C(=O)N3CC(c4cc5ccccc5o4)C3)cnc1NC2=O"
A) 7.730

Q) Also "CCCO/N=C(\C)C1CN(C(=O)/C=C/c2cnc3c(c2)CCC(=O)N3)C1" ?
A) 0.580

Q) Entry to check: "Cc1c(C2CN(C(=O)/C=C/c3cnc4c(c3)CC3(CCN(C)CC3)C(=O)N4)C2)oc2ccccc12"
A) 11.216

Q) # iterate: "O=C1CCc2cc(/C=C/C(=O)N3CC(OCCc4cccs4)C3)cnc2N1"
A) 1.259

Q) Same for "O=C1CCc2cc(/C=C/C(=O)N3CC(c4cc5ccccc5o4)C3)cnc2N1"
A) 4.678

Q) Next compound: "CCCCOC1CN(C(=O)/C=C/c2cnc3c(c2)CC2(CCN(C)CC2)C(=O)N3)C1"
A) 1.288

Q) Note, next up: "O=C1CCc2cc(/C=C/C(=O)N3CC(OCc4cccs4)C3)cnc2N1"
A) 0.826

Q) Could you do the same for "CCCO/N=C(/C)C1CN(C(=O)/C=C/c2cnc3c(c2)CCC(=O)N3)C1" , please?
A) 0.404

Q) Also check "Cc1c(C2CN(C(=O)/C=C/c3cnc4c(c3)CCC(=O)N4)C2)oc2ccccc12"
A) 8.360

###

- assay-target: human albumin (HSA) (Homo sapiens (Human), UniProt P02768)
- assay-procedure: HSA binding analysis using a chiral HSA column
- Format: in vitro ADME
- test-context: text summary of Table 7
readout-name: affinity in vitro to human albumin

Check out these entries, answers already filled in.
In [3]: df
Out[3]:
                                   molecule           observed
0  CN1CCC2(CC1)Cc1cc(/C=C/C(=O)N3CC(c4cc5ccccc5o4)C3)cnc1NC2=O [Example 69]  moderate affinity
1  O=C1CCc2cc(/C=C/C(=O)N3CC(c4cc5ccccc5o4)C3)cnc2N1 [Example 59]  moderate affinity
2  CCCCOC1CN(C(=O)/C=C/c2cnc3c(c2)CC2(CCN(C)CC2)C(=O)N3)C1 [Example 63]       low affinity
3  CCCO/N=C(\C)C1CN(C(=O)/C=C/c2cnc3c(c2)CCC(=O)N3)C1 [Example 70]       low affinity
4  O=C1CCc2cc(/C=C/C(=O)N3CC(OCc4cccs4)C3)cnc2N1 [Example 12]       low affinity

Q) Dear colleague, I am looking for the recorded affinity in vitro to human albumin of the following molecule: O=C1CCc2cc(/C=C/C(=O)N3CC(OCCc4cccs4)C3)cnc2N1 [Example 29]
A) low affinity

Q) Same for Cc1c(C2CN(C(=O)/C=C/c3cnc4c(c3)CCC(=O)N4)C2)oc2ccccc12 [Example 67]
A) moderate affinity

Q) Another molecule: CCCO/N=C(/C)C1CN(C(=O)/C=C/c2cnc3c(c2)CCC(=O)N3)C1 [Example 71]
A) low affinity
